# EXPERIMENTAL_SYSTEM: T1, full-length human 14-3-3ε fused to the C terminus of MBP (human, UniProt P62258 1-255)
# T1 chain: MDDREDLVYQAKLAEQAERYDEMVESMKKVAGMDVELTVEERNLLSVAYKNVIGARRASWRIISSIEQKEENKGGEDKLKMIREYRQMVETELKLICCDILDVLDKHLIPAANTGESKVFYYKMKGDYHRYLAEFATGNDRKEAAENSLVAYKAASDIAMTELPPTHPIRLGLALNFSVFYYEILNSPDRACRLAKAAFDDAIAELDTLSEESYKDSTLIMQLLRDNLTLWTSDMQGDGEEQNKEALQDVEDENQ
# METHOD_SUMMARY: FP
Non-standard residues stand in square brackets, D forms with d. No end group written: not given here. *: point of attachment. FITC = O=C1OC2(c3ccc(O)cc3Oc3cc(O)ccc32)c2ccc(NC(=S)*)cc21; Biotin = O=C1N[C@H]2[C@H](CS[C@H]2CCCCC(=O)*)N1; pT = C[C@@H](OP(=O)(O)O)[C@H](N)C(=O)O; ttds = NCCCOCCOCCOCCCNC(=O)CCC(=O)*; pS = N[C@@H](COP(=O)(O)O)C(=O)O
Answer each item with its documented Kd.
Answer in nM, number only, no unit symbol.

Documented Kd of {Biotin-ttds}-RRVRKLPST[pT]L [RSK1 phospho-PBM peptide RSK1_-1P] : 1580

Lab note: measured Kd of {FITC}-WLRRA[pS]APLPGLK [fluorescently labeled HSPB6 phosphopeptide (fpB6)] was 7170

Entry {Biotin-ttds}-RRVRKLPS[pT]TL [RSK1 phospho-PBM peptide RSK1_-2P] , Kd reported as 1220

The reported numbers originate from paper PMC7961048.
